experiment: Cell Viability - LYMP2-005 (AID 967); conditions: LYMP2-005 lymphoblastoid cell viability; series mostly up to 92.2 µM;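 further: cells exposed to compound for 24 h at 37 °C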
Inconclusive results are not listed. The source made the active and inactive calls. The call rests on the fitted dose curve; in most records, active means well fitted cell-killing curve with a large enough effect; inconclusive means small, poorly fitted or top-dose-only effect, or effect the other way; inactive means no such curve, though single readings can be large or run the other way.
parameter: outcome

The examples below pair each entry with its known result.
*Q* Report outcome for O=S(=O)(O)c1ccccc1 please.
*A* inactive

*Q* Report outcome for S=C1NC=NC2N=CNC12 (centres undefined) please.
*A* inactive

*Q* Report outcome for O=C1CCc2ccccc2O1 please.
*A* inactive

*Q* Report outcome for CCCCCCCCCCCC(=O)O please.
*A* inactive

*Q* Report outcome for Nc1ccc(S(=O)(=O)O)cc1 please.
*A* inactive

Further cases:
*Q* Report outcome for ClCCCl please.
*A* inactive

*Q* Report outcome for Clc1cc(Cl)c(Cl)cc1Cl please.
*A* inactive

*Q* Report outcome for c1ccc2c(c1)[nH]c1ccccc12 please.
*A* inactive

*Q* Report outcome for Nc1ccc(Cl)cc1Cl please.
*A* inactive
